# Tested on: A549/DOX cells
# test_description: cells
# study_conditions: Homo sapiens, A549, 72 h, read-out: IC50 of doxorubicin
experimental_endpoint: pIC50
Keep it numeric: pIC50 is minus log10 of the concentration in mol/L.

Incoming: Test system A549/DOX cells; read-out pIC50; what value for COc1cccc2c1C(=O)c1c(O)c3c(c(O)c1C2=O)C[C@@](O)(C(=O)CO)C[C@@H]3O[C@H]1C[C@H](N)[C@H](O)[C@H](C)O1 ?
Outgoing: 4.81

----------
Structures can show the parent of a compound that is named as a salt.
experimental_endpoint: melting point

Incoming: // melting point lookup, key: COc1cc(/C=C/C(=O)OCCCN(CCCCCOC(=O)c2cc(OC)c(OC)c(OC)c2)CCCOc2ccc3ccc(=O)oc3c2)cc(OC)c1OC (as salt: hydrochloride) [Compound 4]
Outgoing: 74 to 77 °C

Incoming: // melting point lookup, key: COc1cc(/C=C/C(=O)OCCCN(CCCCCOC(=O)c2c3ccccc3cc3ccccc23)CCCOc2ccc3ccc(=O)oc3c2)cc(OC)c1OC (as salt: hydrochloride) [Compound 7]
Outgoing: 92 to 95 °C

Incoming: // melting point lookup, key: O=C(OCCCCCN(CCCOC(=O)c1c2ccccc2cc2ccccc12)CCCOc1ccc2ccc(=O)oc2c1)c1c2ccccc2cc2ccccc12 (as salt: hydrochloride) [Compound 9]
Outgoing: 118 to 121 °C

Incoming: // melting point lookup, key: COc1cc(/C=C/C(=O)OCCCCCN(CCCOC(=O)/C=C/c2cc(OC)c(OC)c(OC)c2)CCCOc2ccc3ccc(=O)oc3c2)cc(OC)c1OC (as salt: hydrochloride) [Compound 1]
Outgoing: 81 to 84 °C
